- Test system: 598228-144-R-J1-PDC complex spheroid viability
- ASSAY TEXT: Anticancer human tumor 598228-144-R-J1-PDC patient-derived serous endometrial adenocarcinoma cell line growth inhibition [GQUAD]
- TEST CONTEXT: second compound 0.316 µM; first compound 1 µM; hits give low values
viability, T/C values by entry
Just the number please, in %, no unit attached.

Query string: What viability, T/C value was documented for this molecule, O=C(c1cc(Cc2n[nH]c(=O)c3ccccc23)ccc1F)N1CCN(C(=O)C2CC2)CC1 + Cc1[nH]c2ccc(F)cc2c1-c1nc2c3cccnc3c3ncccc3c2[nH]1 ?
Result string: 79

New cases:
Query string: What viability, T/C value was documented for this molecule, Nc1ccn(C2OC(CO)C(O)C2(F)F)c(=O)n1 (stereo not given) + CN(C)c1ccc(Nc2c3ccc(NC(=O)CCN4CCCC4)cc3nc3cc(NC(=O)CCN4CCCC4)ccc23)cc1 ?
Result string: 43.2

Query string: Continue with C=CCn1c(=O)c2cnc(Nc3ccc(N4CCN(C)CC4)cc3)nc2n1-c1cccc(C(C)(C)O)n1 + CN(C)c1ccc(Nc2c3ccc(NC(=O)CCN4CCCC4)cc3nc3cc(NC(=O)CCN4CCCC4)ccc23)cc1
Result string: 52.5

Query string: Continue with COc1ccc([C@@H](O)c2cc(-c3ncnc4cc(N5CCOCC5)ccc34)c(F)cc2Cl)nn1 + CN(C)c1ccc(Nc2c3ccc(NC(=O)CCN4CCCC4)cc3nc3cc(NC(=O)CCN4CCCC4)ccc23)cc1
Result string: 64.4

Query string: Continue with CC(=O)O[C@H]1C(=O)[C@@]2(C)[C@H]([C@H](OC(=O)c3ccccc3)[C@]3(O)C[C@H](OC(=O)[C@H](O)[C@@H](NC(=O)c4ccccc4)c4ccccc4)C(C)=C1C3(C)C)[C@]1(OC(C)=O)CO[C@@H]1C[C@@H]2O + CN(C)c1ccc(Nc2c3ccc(NC(=O)CCN4CCCC4)cc3nc3cc(NC(=O)CCN4CCCC4)ccc23)cc1
Result string: 34.6

Query string: Continue with Cc1cccc(N(C)C(=O)C2C(O)CCN2c2nc(C)cc(C(F)(F)F)c2C#N)c1 (stereo not given) + Cc1[nH]c2ccc(F)cc2c1-c1nc2c3cccnc3c3ncccc3c2[nH]1
Result string: 79.2

Query string: Continue with CC1COCCN1c1cc(C2(O)CC3CCC(C2)O3)c2cnn(-c3ccn[nH]3)c2n1 (stereo not given) + CN(C)c1ccc(Nc2c3ccc(NC(=O)CCN4CCCC4)cc3nc3cc(NC(=O)CCN4CCCC4)ccc23)cc1
Result string: 37.1

* * *

- Tested on: 598228-144-R-J1-PDC complex spheroid viability
- ASSAY TEXT: Anticancer human tumor 598228-144-R-J1-PDC cell line growth inhibition [GQUAD];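 also: spheroids exposed to the agents for one week before reading; percent of vehicle DMSO control viability so 100% = untreated growth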
- TEST CONTEXT: second compound 0.0316 µM; first compound 0.00316 µM; hits give low values
Strictly below 90% in viability, T/C: yes (1). Otherwise: no (0).

Query string: Please state whether viability, T/C is below 90% for Cc1[nH]c2ccccc2c1CCNCc1ccc(/C=C/C(=O)NO)cc1 + Cc1cnc(CNC(=O)c2c(=O)c3ccc(N4CCCN(C)CC4)nc3n3c2sc2ccccc23)cn1
Result string: no (0)

Query string: Continue with Cc1[nH]c2ccccc2c1CCNCc1ccc(/C=C/C(=O)NO)cc1 + CN(C)c1ccc(Nc2c3ccc(NC(=O)CCN4CCCC4)cc3nc3cc(NC(=O)CCN4CCCC4)ccc23)cc1
Result string: no (0)

Query string: Continue with Cn1ncnc1[C@H]1c2n[nH]c(=O)c3cc(F)cc(c23)N[C@@H]1c1ccc(F)cc1 + Cc1[nH]c2ccc(F)cc2c1-c1nc2c3cccnc3c3ncccc3c2[nH]1
Result string: yes (1)

Query string: Continue with CCc1c2c(nc3ccc(O)cc13)-c1cc3c(c(=O)n1C2)COC(=O)[C@]3(O)CC + Cc1[nH]c2ccc(F)cc2c1-c1nc2c3cccnc3c3ncccc3c2[nH]1
Result string: yes (1)

Query string: Continue with CC[C@@]1(O)C(=O)OCc2c1cc1n(c2=O)Cc2cc3c(CN(C)C)c(O)ccc3nc2-1 + Cc1cnc(CNC(=O)c2c(=O)c3ccc(N4CCCN(C)CC4)nc3n3c2sc2ccccc23)cn1
Result string: no (0)

Below: the item to evaluate.
Query string: Please state whether viability, T/C is below 90% for Cn1ncnc1[C@H]1c2n[nH]c(=O)c3cc(F)cc(c23)N[C@@H]1c1ccc(F)cc1 + CN(C)c1ccc(Nc2c3ccc(NC(=O)CCN4CCCC4)cc3nc3cc(NC(=O)CCN4CCCC4)ccc23)cc1
Result string: no (0)

* * *

- System: 598228-144-R-J1-PDC complex spheroid viability
- ASSAY TEXT: Anticancer human tumor 598228-144-R-J1-PDC cell line growth inhibition [GQUAD];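 also: spheroids exposed to the agents for one week before reading; percent of vehicle DMSO control viability so 100% = untreated growth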
- TEST CONTEXT: second compound 0.0316 µM; first compound 0.316 µM; hits give low values
MEASURED PROPERTY: viability, T/C (%)
Just the number please, in %, no unit attached.

Query string: What viability, T/C value was documented for this molecule, C#Cc1c(F)ccc2cc(O)cc(-c3ncc4c(N5CC6CCC(C5)N6)nc(OCC56CCCN5CC(F)C6)nc4c3F)c12 (centres undefined) + Cc1[nH]c2ccc(F)cc2c1-c1nc2c3cccnc3c3ncccc3c2[nH]1 ?
Result string: 120

Query string: Continue with COc1cccc2c1C(=O)c1c(O)c3c(c(O)c1C2=O)CC(O)(C(=O)CO)CC3OC1CC(N)C(O)C(C)O1 (centres undefined) + Cc1[nH]c2ccc(F)cc2c1-c1nc2c3cccnc3c3ncccc3c2[nH]1
Result string: 69.8

We now examine a further molecule.
Query string: What viability, T/C value was documented for this molecule, C=CCn1c(=O)c2cnc(Nc3ccc(N4CCN(C)CC4)cc3)nc2n1-c1cccc(C(C)(C)O)n1 + Cc1cnc(CNC(=O)c2c(=O)c3ccc(N4CCCN(C)CC4)nc3n3c2sc2ccccc23)cn1 ?
Result string: 61.1

* * *

viability, T/C values by entry
- Test system: 598228-144-R-J1-PDC complex spheroid viability
- ASSAY TEXT: Anticancer human tumor 598228-144-R-J1-PDC cell line growth inhibition [GQUAD];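 also: spheroids exposed to the agents for one week before reading; percent of vehicle DMSO control viability so 100% = untreated growth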
- TEST CONTEXT: second compound 10 µM; first compound 0.00316 µM; hits give low values
- Excerpt: DNA G-quadruplex Stabilizer Agents in Combinations in Complex Spheroids A high-throughput screen of multi-cell type tumor spheroids was designed to identify active combinations of DNA G-quadruplex stabilizer agents and targeted small molecules. […] Compounds. […] If the clinical Cmax for an agent had not been determined, the highest concentration tested was 10 microM. […]
Just the number please, in %, no unit attached.

Known viability, T/C results, listed for orientation:
Query string: What viability, T/C value was documented for this molecule, Cn1ncnc1[C@H]1c2n[nH]c(=O)c3cc(F)cc(c23)N[C@@H]1c1ccc(F)cc1 + Cc1[nH]c2ccc(F)cc2c1-c1nc2c3cccnc3c3ncccc3c2[nH]1 ?
Result string: 58.9

Query string: Continue with CCc1c2c(nc3ccc(O)cc13)-c1cc3c(c(=O)n1C2)COC(=O)[C@]3(O)CC + Cc1cnc(CNC(=O)c2c(=O)c3ccc(N4CCCN(C)CC4)nc3n3c2sc2ccccc23)cn1
Result string: 39.5

Query string: Continue with CC[C@@]1(O)C(=O)OCc2c1cc1n(c2=O)Cc2cc3c(CN(C)C)c(O)ccc3nc2-1 + Cc1cnc(CNC(=O)c2c(=O)c3ccc(N4CCCN(C)CC4)nc3n3c2sc2ccccc23)cn1
Result string: 41.2

New cases:
Query string: What viability, T/C value was documented for this molecule, Cn1ncnc1[C@H]1c2n[nH]c(=O)c3cc(F)cc(c23)N[C@@H]1c1ccc(F)cc1 + Cc1cnc(CNC(=O)c2c(=O)c3ccc(N4CCCN(C)CC4)nc3n3c2sc2ccccc23)cn1 ?
Result string: 45.7

Query string: Continue with Cn1ncnc1[C@H]1c2n[nH]c(=O)c3cc(F)cc(c23)N[C@@H]1c1ccc(F)cc1 + CN(C)c1ccc(Nc2c3ccc(NC(=O)CCN4CCCC4)cc3nc3cc(NC(=O)CCN4CCCC4)ccc23)cc1
Result string: 86.3

Query string: Continue with Cc1[nH]c2ccccc2c1CCNCc1ccc(/C=C/C(=O)NO)cc1 + Cc1cnc(CNC(=O)c2c(=O)c3ccc(N4CCCN(C)CC4)nc3n3c2sc2ccccc23)cn1
Result string: 16.2

Query string: Continue with CC[C@@]1(O)C(=O)OCc2c1cc1n(c2=O)Cc2cc3c(CN(C)C)c(O)ccc3nc2-1 + CN(C)c1ccc(Nc2c3ccc(NC(=O)CCN4CCCC4)cc3nc3cc(NC(=O)CCN4CCCC4)ccc23)cc1
Result string: 90.9

Query string: Continue with Cc1[nH]c2ccccc2c1CCNCc1ccc(/C=C/C(=O)NO)cc1 + Cc1[nH]c2ccc(F)cc2c1-c1nc2c3cccnc3c3ncccc3c2[nH]1
Result string: 64.8

Query string: Continue with CC[C@@]1(O)C(=O)OCc2c1cc1n(c2=O)Cc2cc3c(CN(C)C)c(O)ccc3nc2-1 + Cc1[nH]c2ccc(F)cc2c1-c1nc2c3cccnc3c3ncccc3c2[nH]1
Result string: 58.9
